Experiment: Pharmacokinetic study of I-11 in female BALB/c mice (Example 4)
Type: in vivo, Balb/c mouse
Conditions: mouse, plasma, IV 5 mg/kg, read-out: Vss

- COMPOUND: "CC(C)Cc1sc(Nc2ncc(-c3cccs3)cc2C(=O)O)nc1C(C)(C)C [Compound I-11]"
  Vd / L/kg: 0.69

====

Experiment: Pharmacokinetic studies of certain compounds in female Balb/c mice (Example 5)
Type: in vivo
Details: mouse, plasma, I-8 PO 50 mg/kg

- MOLECULE: "CC(C)Cc1sc(Nc2ncc(-c3cccs3)cc2C(=O)O)nc1C1=CCCC1"
  VALUE_UNIT: "ng·h/mL"
  AUC(0-inf): 9970

====

Assay: Pharmacokinetic studies of certain compounds in female Balb/c mice (Example 5)
Type: in vivo
Conditions: female, Balb/c, mouse, plasma, po, 50 mg/kg, I-8 PO 50 mg/kg, 0.083 hr, read-out: Plasma concentration Individual
MEASURED_ENDPOINT: concentration at 0.083 h (ng/mL)

- MOLECULE: "CC(C)Cc1sc(Nc2ncc(-c3cccs3)cc2C(=O)O)nc1C1=CCCC1"
  MEASURED_ENDPOINT: "concentration at 0.083 h"
  VALUE_UNIT: "ng/mL"
  TEST_VALUE: 247

====

Assay: Pharmacokinetic studies of certain compounds in female Balb/c mice (Example 5)
Type: in vivo
Conditions: mouse, plasma, I-3 IV 1 mg/kg
MEASURED_ENDPOINT: MRT last (min)

- MOLECULE: "CC(C)Cc1sc(Nc2ncc(-c3cccs3)cc2C(=O)O)nc1C1CCCCC1"
  MEASURED_ENDPOINT: "MRT last"
  TEST_VALUE: 32.5

====

Assay: Pharmacokinetic studies of certain compounds in female Balb/c mice (Example 5)
Format: in vivo
Conditions: female, Balb/c, mouse, plasma, po, 30 mg/kg, I-1 PO 30 mg/kg, 4 hr, read-out: Plasma concentration Individual
MEASURED_ENDPOINT: concentration at 4 hr (ng/mL)

- COMPOUND: "CC(C)Cc1sc(Nc2ncc(-c3cccs3)cc2C(=O)O)nc1C1=CCOCC1 [Compound I-1]"
  VALUE_UNIT: "ng/mL"
  TEST_VALUE: 193

====

Assay: Pharmacokinetic studies of certain compounds in female Balb/c mice (Example 5)
Assay type: in vivo
Conditions: female, Balb/c, mouse, plasma, po, 30 mg/kg, I-3 PO 30 mg/kg, 24 hr, read-out: Plasma concentration Mean

- MOLECULE: "CC(C)Cc1sc(Nc2ncc(-c3cccs3)cc2C(=O)O)nc1C1CCCCC1"
  VALUE_UNIT: "ng/mL"
  concentration at 24 hr: 5.93

====

Experiment: Pharmacokinetic studies of certain compounds in female Balb/c mice (Example 5)
Type: in vivo
Settings: female, Balb/c, mouse, plasma, po, 30 mg/kg, I-2 PO 30 mg/kg, 0.083 hr, read-out: Plasma concentration Mean
MEASURED_ENDPOINT: concentration at 0.083 h (ng/mL)

- MOLECULE: "CC(C)Cc1sc(Nc2ncc(-c3cccs3)cc2C(=O)O)nc1C1=CCCCC1"
  VALUE_UNIT: "ng/mL"
  TEST_VALUE: 137

====

Test: Pharmacokinetic studies of certain compounds in female Balb/c mice (Example 5)
Type: in vivo
Conditions: female, Balb/c, mouse, plasma, po, 50 mg/kg, I-8 PO 50 mg/kg, 24 hr, read-out: Plasma concentration Mean

- MOLECULE: "CC(C)Cc1sc(Nc2ncc(-c3cccs3)cc2C(=O)O)nc1C1=CCCC1"
  VALUE_UNIT: "ng/mL"
  concentration at 24 h: 7.75
